Values from ChEMBL document CHEMBL1131411

system: Mus musculus; experiment: Percent efficacy is tested in nude mice carrying DLD-1 tumor cell lines (a human carcinoma cell line) containing mutated K-ras, by oral administration of drug at 50 mg/kg; format: functional
Each entry below carries its reported Efficacy.
Number only, in %; omit the unit.

NC(=O)N1CCC(CC(=O)N2CCC([C@H]3c4ncc(Br)cc4CCc4cc(Cl)cc(Br)c43)CC2)CC1 [LONAFARNIB] has a reported Efficacy of 76

* * *

experiment: Pharmacokinetic parameter area under the curve (0-48 h) for the compound was evaluated in […] monkeys after oral administration.; type: ADME, organism-based, Macaca fascicularis; set-up: time < 48 hr, route oral; concentration or dose not given beside the values; settings: cynomolgus monkey, in vivo
Let's look at some molecules and their measured AUC(0-t) at 48 h.
The response must be a number in ng·h/mL with no trailing unit.

Illustrative cases are given below, each with its answer.
- chemical structure: "O=C(Cc1cc[n+]([O-])cc1)N1CCC([C@H]2c3ccc(Cl)c(Br)c3CCc3cc(Br)cnc32)CC1"
  measure unit: "ng·h/mL"
  AUC(0-t) at 48 h: 10400
- chemical structure: "O=C(Cc1cc[n+]([O-])cc1)N1CCC([C@H]2c3ncc(Br)cc3CCc3cc(Cl)cc(Br)c32)CC1"
  measure unit: "ng·h/mL"
  AUC(0-t) at 48 h: 3700
- chemical structure: "O=C(Cc1cc[n+]([O-])cc1)N1CCN([C@H]2c3ncc(Br)cc3CCc3cc(Cl)cc(Cl)c32)CC1"
  measure unit: "ng·h/mL"
  AUC(0-t) at 48 h: 40

For reference, reported AUC(0-t) at 48 h for `NC(=O)N1CCC(CC(=O)N2CCN([C@H]3c4ccc(Cl)c(Br)c4CCc4cc(Br)cnc43)CC2)CC1` stands at 16700
